Field: TGI. Provide a value for each of the molecules that follow.
tested on: U251 CNS; assay: NCI tumour cell line growth inhibition, 48 h

Recorded result, `Cc1ccc(NCCN(C)C)c2c(=O)c3ccccc3sc12` , TGI: 3.82 µM

Recorded result, `COc1cc2c(=O)n(CCN(C)C)c3c4cc5c(cc4ccc3c2cc1OC)OCO5` , TGI: 1.92 µM

Recorded result, `Cc1cc(=O)[nH]c(CNC(=O)c2cccc(C(=O)NCc3cc(=O)[nH]c(C)n3)c2)n1` , TGI: > 100 µM

Recorded result, CCOC(=O)C(CNc1ccc(O)cc1)NC(=O)c1ccccc1 (stereo unspecified) , TGI: > 100 µM

Recorded result, CC1CN=C(c2cccc(-c3nc(-c4cccc(C5=NCC(C)N5)c4)nc(N(C)C)n3)c2)N1 (stereo unspecified) , TGI: 2.13 µM

Recorded result, `COP(=O)(OC)/C(=C/c1cn(C(c2ccccc2)(c2ccccc2)c2ccccc2)cn1)NC=O` , TGI: 35.4 µM

Recorded result, `COc1ccc(Nc2nc3cc(N)cc(N)c3nc2-c2ccccc2)cc1OC` , TGI: > 100 µM

Recorded result, `O=C(NCc1ccco1)c1cccc(NC2=C(Cl)C(=O)N(Cc3ccccc3)C2=O)c1` , TGI: 60.5 µM

Recorded result, `N#C/C(N)=C(\C#N)N=CNc1ccc(N)cc1` , TGI: > 100 µM

Recorded result, O=C1C2C3C=C4c5ccccc5N(c5ccccc5)C4(C2C(=O)N1c1ccc(Br)cc1)[C@H]1C(=O)N(c2ccc(Br)cc2)C(=O)[C@@H]31 (stereo partly specified) , TGI: > 100 µM

Recorded result, `C/C=C/COC(=O)CO[N+](=O)[O-]` , TGI: > 100 µM

Recorded result, CC1(C)CCCCCC(C)(CCCO)C1=O (stereo unspecified) , TGI: > 100 µM

Recorded result, C[C@]12CCNC(=O)C=C1CC[C@@H]1C2CC[C@@]2(C)C1CC[C@@H]2OC(=O)COc1ccc(N(CCCl)CCCl)cc1 (stereo partly specified) , TGI: 11.1 µM

Recorded result, `CCN(CC)CCn1[nH]c2c3ccc(=O)cc3sc3c(NCCN)ccc1c32` , TGI: 5.18 µM

Recorded result, `CCS(=O)(=O)c1ccc(OC)c(Nc2ncc(-c3ccccc3Cl)o2)c1` , TGI: > 25 µM

Recorded result, NC(=O)c1c(NC=O)ncn1C1OCC(O)C(O)C1O (stereo unspecified) , TGI: > 100 µM

Recorded result, `CSCCCNC(=O)c1csc(-c2csc(CCNC(=O)CNC(=O)CNC(=O)OC(C)(C)C)n2)n1` , TGI: > 100 µM

Recorded result, `O=C(N/N=C/c1cc(Cl)cc(Cl)c1[O-])c1ccccc1.O=C(N/N=C/c1cc(Cl)cc(Cl)c1[O-])c1ccccc1.[Co+2]` , TGI: > 100 µM

Recorded result, `COc1ccc2c3c([nH]c2c1)CCN(Cc1ccccc1)C3` , TGI: 53.4 µM

Recorded result, `CCCN(CCC)c1c([N+](=O)[O-])cc(C(=O)N(CCO)CCO)cc1[N+](=O)[O-]` , TGI: > 100 µM

Recorded result, `CN(C)c1ccc(C(c2ccc(Cl)cc2)c2ccc(N(C)C)cc2)cc1` , TGI: > 100 µM

Recorded result, `CCCN1C(=O)/C(=C\c2ccc(OC)c(OC)c2)SC1=Nc1ccccc1` , TGI: > 100 µM

Recorded result, `O=C(CC(=O)c1cccc(Cl)c1)c1cccc(Cl)c1` , TGI: > 100 µM

Recorded result, `C[C@@H]1COCCN1c1cc(C2([S@@](C)(=N)=O)CC2)nc(-c2ccnc3[nH]ccc23)n1` , TGI: > 100 µM

Recorded result, `CCOC(=O)C(O)(C(=O)OCC)c1cc(C(C)(C)C)c(O)c(C(C)(C)C)c1` , TGI: > 100 µM

Recorded result, `O=C(NCCNc1nccc(-c2c(-c3cccc(O)c3)nc3sccn23)n1)c1ccccc1` , TGI: > 100 µM
